# Procedure Summary: yeast display, Sf9 membrane polyspecificity reagent, FACS + sequencing; frameworks hold sequencing errors
Reported Endpoint: polyreactivity (PSR sort gate)

polymer_sequence=QVQLVETGGGLVQAGGSLRLSCAASGFIFYDYAMGWYRQSPGKERELVASISWSSGSTYYADSVKGRFTISRDNAKNTVYLQMNSLKPEDTAVYYCAADGYPLQLYNYWGQGTQVSVSS result="low polyreactivity"
polymer_sequence=QVQLVESGGGLVQAGGSLRLTCAASGSTFGWYAMGWYRQAPGKERELVAAIRSNGGSTYYADSVKGRFTISRDNAKNTVYLHMNSLKPEDTAVYYCAGRGSPSKHHWYDYWGQGTQVNVSS result="low polyreactivity"
polymer_sequence=QVQLVESGGGLVQAGGSLRLSCAASGSIFRPNAMRWYRQAPGKERELVAAISSGDSTNYADSVKGRFTISRDNAKNTVYLLMNSLKAEDTAVYYCNTDKYSESYRSYEYWGQGTQVTVSS result="low polyreactivity"
polymer_sequence=QVQLVESGGGLVQAGGSLRLSCAASGRIFIFNAMGWYRQAPGKERELVAAISTRGGSTRYADSVKGRFTISRDNAKNTVYLQMNSLKPEDTAVYYCAAVYLYYAYAFDYWGQGTQVTVSS result="high polyreactivity"
polymer_sequence=QVQLVESGGGLVQAGGSLRLSCAASGSIFEWYAMGWYRQAPGKERELVADITNNGGSTYYADSVKGRFTISRDNAKNTVYLQMNSLKPEDTAVYYCAADYFDQVPDYYYASEYGYWGQGTQVTVSS result="low polyreactivity"

-- ask Assign polyreactivity (PSR sort gate) to the following record: QVQLVESAGRLVQAGGSLRLSCAASGSTFYSYAMGWYRQAPGKEREFVAAITYSDGITYYADSVKGRFTISRDNAKNTVYLQMNSLKPEDTAVYYCAKAPIWGVTRKFDYWGQGNQVTVSS
-- reply high polyreactivity

-- ask Assign polyreactivity (PSR sort gate) to the following record: QVQLVESGGGLVQAGGSRRLICAASGSIFYTNAMGWYRPAPAKERELVARISFSDGTTNYADSVKGRFTISRDNAKNTVYVQMNSLKPEDTAVYYCATDLYGRPVRFDYWGQGTQVTVSS
-- reply low polyreactivity

-- ask Assign polyreactivity (PSR sort gate) to the following record: QVQLVESGGGLVQAGGSLRLSCADSGRIFRGNTMGWYRQAPGKERELVATINGRGGSTYYADSVKGRFTISRDNAKNTLYLQMNSLKPEDTAVYYCAARARTTRSATYDYWGQGTQVTVSS
-- reply high polyreactivity

-- ask Assign polyreactivity (PSR sort gate) to the following record: QVQLVESGGGLVQAGGSLRLSCAASGYTFRNNAMGWYRQAPGKEREFVAAISRSGARTYYADSVKGRFTISRDNAKNTVYLQMNSLKPEDTAVYYCAARESFEYDSWGQGTQVTVSS
-- reply high polyreactivity

-- ask Assign polyreactivity (PSR sort gate) to the following record: QVQLVESGGGLVQAGGSLRLSCAASGFTFDEYAMGWYRQAPGKEREFVATISSSGGSTYYADSVKGRFTISRDNAKNTVYLQMNSLKPEDTAVYYCAADVRRLYTSGVDYWWHSEYDYWGQGTQVTLSS
-- reply low polyreactivity

-- ask Assign polyreactivity (PSR sort gate) to the following record: QVHLVETGGGLVQAGGSLRLSCAASGFTFAYYAMGWYRQAPGKEREFVAVITWSGGDKYYADSVKGRFTISRDIAKNTVYLQMNSLKPVDTSVYYCNADAYRITRYGYDYWGQGTQVTVSS
-- reply high polyreactivity

Reference source: the nanobody polyreactivity screen of Harvey et al. (2022)
